# reported pIC50; entries follow
target: plasma kallikrein (PKa) (Homo sapiens, UniProt P03952); construct: purchased R & D 2497-SE; assay: Inhibitory activity against plasma kallikrein in vitro (fluorescence intensity enzyme assay, Pro-Phe-Arg-AMC substrate); assay type: biochemical; conditions: plasma kallikrein enzyme assay, Pro-Phe-Arg-AMC substrate; read-out: PKa IC50
Sequence (P03952 391-638 limits assumed): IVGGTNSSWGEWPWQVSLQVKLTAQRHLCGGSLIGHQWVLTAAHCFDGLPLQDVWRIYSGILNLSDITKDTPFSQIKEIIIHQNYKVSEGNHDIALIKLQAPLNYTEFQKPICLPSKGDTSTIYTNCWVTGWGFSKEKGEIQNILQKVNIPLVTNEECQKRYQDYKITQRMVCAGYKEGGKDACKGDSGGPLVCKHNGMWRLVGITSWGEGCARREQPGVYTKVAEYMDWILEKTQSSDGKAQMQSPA
Sequence (P03952 20-390 partner limits assumed): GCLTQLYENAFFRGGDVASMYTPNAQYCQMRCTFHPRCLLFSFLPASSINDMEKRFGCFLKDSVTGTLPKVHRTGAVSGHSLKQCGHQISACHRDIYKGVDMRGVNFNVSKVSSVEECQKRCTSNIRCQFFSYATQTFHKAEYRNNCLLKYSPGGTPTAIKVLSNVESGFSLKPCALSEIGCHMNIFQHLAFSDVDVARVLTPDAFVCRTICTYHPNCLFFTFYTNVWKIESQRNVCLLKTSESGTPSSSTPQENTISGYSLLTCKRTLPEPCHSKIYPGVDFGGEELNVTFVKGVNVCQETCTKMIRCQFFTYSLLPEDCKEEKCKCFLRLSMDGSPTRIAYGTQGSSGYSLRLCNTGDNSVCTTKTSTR
pIC50: −log10 of the molar value.
measurement.name: pIC50

> print(dat)
                                   compound  measurement.name  observed.value
1  CN(C)c1ccnc(CNC(=O)c2cn(Cc3ccc(Cn4ccccc4=O)cc3)nc2C2CC2(F)F)c1F (stereo not drawn)             pIC50            8.80
2  CCc1cc(N2CC3C(C2)C3(F)F)ccc1Cn1cc(C(=O)NCc2ccc(C(=N)N)cc2)cn1 (stereo not drawn)             pIC50            8.91
3  Cc1cc(N)nc(C)c1CNC(=O)c1ncn(C(C)c2ccc(Cn3ccccc3=O)cc2)n1 (stereo not drawn)             pIC50            9.05

====

molecular target: plasma kallikrein (PKa) (Homo sapiens, UniProt P03952); construct: purchased R & D 2497-SE; assay: PKa inhibition in kaolin-activated human platelet-poor plasma (PPP); format: biochemical; settings: Pro-Phe-Arg-AMC substrate, fluorescence signal
# reported IC50; entries follow
measurement.name: IC50

> print(dat)
                            smiles.notation  measurement.name  observed.value
1  COCc1nn(Cc2ccc(Cn3ccccc3=O)cc2)cc1C(=O)NCc1c(C)cc(N)nc1C              IC50          6.8 nM
2  N=C(N)c1ccc(CNC(=O)c2coc(Cc3cn4cc(C5CC5)ccc4n3)n2)cc1              IC50          6.7 nM
3  COCc1nn(Cc2cn3cc(C4CC4)ccc3n2)cc1C(=O)NCc1ccc(C(=N)N)cc1              IC50         73.4 nM
4  N=C(N)c1ccc(CNC(=O)c2cnn(Cc3ccc(Oc4ccccc4)cc3)c2)cc1              IC50         13.2 nM
5  N=C(N)c1ccc(CNC(=O)c2cnn(Cc3ccc(CC4CC4)cc3)c2C(F)(F)F)cc1              IC50         8.38 nM

====

# reported pIC50; entries follow
target: plasma kallikrein (PKa) (Homo sapiens, UniProt P03952); construct: purchased R & D 2497-SE; experiment: Inhibitory activity against plasma kallikrein in vitro (fluorescence intensity enzyme assay, Pro-Phe-Arg-AMC substrate); assay type: biochemical; conditions: plasma kallikrein enzyme assay, Pro-Phe-Arg-AMC substrate; read-out: PKa IC50
pIC50: −log10 of the molar value.
measurement.name: pIC50

> print(dat)
                            smiles.notation                            assayed.target  measurement.name  observed.value
1  Cc1nc(N)ncc1CNC(=O)c1ncn(Cc2ccc(Cn3cc(F)ccc3=O)cc2)n1  plasma kallikrein (PKa) (Homo sapiens, UniProt P03952)             pIC50          < 6.00
2  O=C(NCc1nccc(NCC2CC2)c1F)c1cn(Cc2ccc(Cn3ccccc3=O)cc2)nc1C1COC1  plasma kallikrein (PKa) (Homo sapiens, UniProt P03952)             pIC50          < 6.00
3  COCc1nn(Cc2ccc(Cn3ccccc3=O)cc2)cc1C(=O)NCc1c(C#N)ccc(OC)c1C  plasma kallikrein (PKa) (Homo sapiens, UniProt P03952)             pIC50          < 6.00
4  Cn1cnc2c1CC[C@H]2NC(=O)c1ncn(Cc2ccc(CN3CCCCC3=O)cc2)n1  plasma kallikrein (PKa) (Homo sapiens, UniProt P03952)             pIC50          < 7.00
5  O=C(NCc1nccc(N2CCCC2)c1F)c1cn(Cc2ccc(CC3CC3)cc2)nc1C1COC1  plasma kallikrein (PKa) (Homo sapiens, UniProt P03952)             pIC50          < 6.00
